Reference source: patent US12336981B2

Quick reference: IC50 of the listed items.
target: NAMPT (Homo sapiens)
Construct: His tag; host or cells: E. coli
Sequence (P43490 whole entry): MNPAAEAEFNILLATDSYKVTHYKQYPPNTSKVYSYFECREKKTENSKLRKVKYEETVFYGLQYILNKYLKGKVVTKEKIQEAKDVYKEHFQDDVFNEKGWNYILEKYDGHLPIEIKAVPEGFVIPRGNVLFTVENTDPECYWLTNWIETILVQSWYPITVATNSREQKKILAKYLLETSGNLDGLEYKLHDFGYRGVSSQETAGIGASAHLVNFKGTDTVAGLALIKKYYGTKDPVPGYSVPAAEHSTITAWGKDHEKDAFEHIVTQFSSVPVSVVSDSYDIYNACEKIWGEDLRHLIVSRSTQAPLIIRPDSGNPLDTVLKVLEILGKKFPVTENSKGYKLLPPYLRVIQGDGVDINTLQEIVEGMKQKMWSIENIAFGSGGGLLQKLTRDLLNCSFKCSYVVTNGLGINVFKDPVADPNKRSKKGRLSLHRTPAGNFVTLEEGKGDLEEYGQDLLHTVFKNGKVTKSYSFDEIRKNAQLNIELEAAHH
assay-name: Biochemical inhibition assay: NAMPT enzymatic reaction, NMN quantified by mass spectrometry
cond: NAMPT enzymatic assay; read-out: Biochem IC50

>  <molecule>
Cc1csc(S(=O)(=O)c2ccc(CNC(=O)c3ccc4nccn4c3)cc2)c1

>  <target>
NAMPT (Homo sapiens)

>  <reading-unit>
nM

>  <IC50>
12.4

$$$$
>  <molecule>
O=C(NCc1ccc(S(=O)(=O)c2ccc(Cl)cc2C(F)(F)F)cc1)c1cnc2[nH]ncc2c1

>  <target>
NAMPT (Homo sapiens)

>  <reading-unit>
nM

>  <IC50>
147

$$$$
>  <molecule>
O=C(NCc1ccc(S(=O)(=O)c2cc(Cl)cc(C(F)(F)F)c2)cc1)c1cnc2nccn2c1

>  <target>
NAMPT (Homo sapiens)

>  <reading-unit>
nM

>  <IC50>
4.4

$$$$
>  <molecule>
O=C(NCc1ccc(S(=O)(=O)c2ccc(OC(F)(F)F)cc2)cc1)c1cnc2nccn2c1

>  <target>
NAMPT (Homo sapiens)

>  <reading-unit>
nM

>  <IC50>
5

$$$$
>  <molecule>
O=C(NCc1ccc(S(=O)(=O)c2cc(F)cc(N3CCCC3)c2)cc1)c1cc2ccncc2s1

>  <target>
NAMPT (Homo sapiens)

>  <reading-unit>
nM

>  <IC50>
1.2

$$$$
